target: 11β-hsd-1 enzyme (Homo sapiens, UniProt P28845); experiment: 11β-hsd-1 enzyme assay, percentage of inhibition (3H-cortisone to cortisol, radio-HPLC); assay type: biochemical; settings: 0.1 uM; read-out: % inh @ 0.1 uM
Sequence (P28845 whole entry, species assumed): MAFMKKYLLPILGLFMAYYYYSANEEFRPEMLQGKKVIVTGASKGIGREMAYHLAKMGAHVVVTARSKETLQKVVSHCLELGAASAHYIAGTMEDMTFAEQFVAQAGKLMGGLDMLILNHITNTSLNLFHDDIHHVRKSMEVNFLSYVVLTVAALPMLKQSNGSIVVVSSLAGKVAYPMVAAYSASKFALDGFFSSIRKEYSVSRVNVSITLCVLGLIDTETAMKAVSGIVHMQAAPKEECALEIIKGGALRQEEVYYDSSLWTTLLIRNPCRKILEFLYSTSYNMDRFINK
// inhibition at 0.1 µM lookup, one value per entry
Quick note: give the figure in %, leave out the unit.

In the examples that follow, each entry is paired with its recorded inhibition at 0.1 µM.
lineNotation: Cc1cccc(NS(=O)(=O)c2ccc(-c3ccc(S(C)(=O)=O)cc3)cc2)n1
unitsText: %
observedMeasurement: 71
//
lineNotation: Cc1c(S(=O)(=O)Nc2cccc(CCO)n2)sc2ccc(Cl)cc12
unitsText: %
observedMeasurement: 93.6
//
lineNotation: Cc1cccc(NS(=O)(=O)c2ccc(-c3ccc(CO)cc3)cc2)n1
unitsText: %
observedMeasurement: 46.5
//
lineNotation: CCN(CC)C(=O)CCc1ccc(NS(=O)(=O)c2cccc(Cl)c2C)nc1
unitsText: %
observedMeasurement: 34.6

Below: the item to evaluate.
Name the recorded inhibition at 0.1 µM for `COc1cccc(NS(=O)(=O)c2ccc(C(F)(F)F)cc2)n1` .
1.3
